- protocol: recombinant barcode read abundance after kanamycin selection (control-corrected) (log10(CPM+1)); higher = more efficient recombination; sequences stand for … in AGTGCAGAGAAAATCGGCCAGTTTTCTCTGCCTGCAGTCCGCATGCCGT…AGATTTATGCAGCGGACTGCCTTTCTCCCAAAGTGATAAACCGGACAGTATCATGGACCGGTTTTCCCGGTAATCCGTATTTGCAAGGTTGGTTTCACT; site = the 11-nt target
measured.property: recombinant barcode read abundance (log10)

| sequence.entry | number |
| --- | --- |
| GCGTTACCTTGGGTTCTAACCTGTTGCCT (site GGGATACCTAG) | 0.0535 |
| TTGAATGCTTGGGTTCTAACCTGTTGCCT (site TTGATTGCTAG) | 0.214 |
| CGACACACTTGGGTTCTAACCTGTTGCCT (site CGGCACACTAG) | 0.0559 |
| CAAACATCTTGGGTTCTAACCTGTTGCCT (site CAAACAGCTAG) | 0.0169 |
| CTACAGACTTGGGTTCTAACCTGTTGCGA (site CTACAGACTAC) | 0.0546 |
| CTATTCACTTGGGTTCTAACCTGTTGCCT (site CTATTCCCTAG) | 0.0733 |
| CGTTATTCTTGGGTTCTAACCTGTTGCCT (site CGGAATTCTAG) | 0.115 |
| CATGATGCTTGGGTTCTAACCTGTTGCCT (site CACGATGCTAG) | 0.487 |
| CTACGATCTTGGGTTCTAACCTGTTGCAC (site CTACGATCTGT) | 0.737 |
| CTATGGACTTGGGTTCTAACCTGTTGCAA (site CTATGGACTTT) | 1.39 |

----------
Parameter: recombinant barcode read abundance (log10). Scope: all listed entries.
- protocol: recombinant barcode read abundance after kanamycin selection (control-corrected) (log10(CPM+1)); higher = more efficient recombination; sequences stand for … in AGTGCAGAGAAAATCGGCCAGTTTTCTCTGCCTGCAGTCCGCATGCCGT…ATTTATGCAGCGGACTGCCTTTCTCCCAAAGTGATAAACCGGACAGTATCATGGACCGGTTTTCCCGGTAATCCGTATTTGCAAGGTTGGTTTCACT; site = the 11-nt target
measured.property: recombinant barcode read abundance (log10)

| sequence.entry | result |
| --- | --- |
| TTATAAAGGTGGGTTCTAACCTGTTGCCTCC [TTATAAACTAG_LTGcore_GG_RTGcore_GG] (site TTATAAACTAG) (LTG core: GG, RTG core: GG) | 0.154 |
| ATGTCCCCCTGGGTTCTAACCTGTTGCTCGG [ATGTCCCCTGA_LTGcore_CC_RTGcore_CC] (site ATGTCCCCTGA) (LTG core: CC, RTG core: CC) | 0.0529 |
| ACGGGACCTTGGGTTCTAACCTGTTGCAGGG [ACGGGACCTCT_LTGcore_CT_RTGcore_CC] (site ACGGGACCTCT) (LTG core: CT, RTG core: CC) | 0.931 |
| GGGCGTGGGTGGGTTCTAACCTGTTGCCTCC [GGGCGTGCTAG_LTGcore_GG_RTGcore_GG] (site GGGCGTGCTAG) (LTG core: GG, RTG core: GG) | 0.116 |
| GAGTCCTCTTGGGTTCTAACCTGTTGCCTAC [GAGTCCTCTAG_LTGcore_CT_RTGcore_GT] (site GAGTCCTCTAG) (LTG core: CT, RTG core: GT) | 1.02 |
| AAACATGTCTGGGTTCTAACCTGTTGCCTAG [AAACATGCTAG_LTGcore_TC_RTGcore_CT] (site AAACATGCTAG) (LTG core: TC, RTG core: CT) | 0.0742 |
| TGTATTCGGTGGGTTCTAACCTGTTGCCTCC [TGTATTCCTAG_LTGcore_GG_RTGcore_GG] (site TGTATTCCTAG) (LTG core: GG, RTG core: GG) | 0.0849 |
| GAGCCCACTTGGGTTCTAACCTGTTGCCTAC [GAGCCCACTAG_LTGcore_CT_RTGcore_GT] (site GAGCCCACTAG) (LTG core: CT, RTG core: GT) | 0.369 |
| CGAGCCCCTTGGGTTCTAACCTGTTGCTGTG [CGAGCCCCTCA_LTGcore_CT_RTGcore_CA] (site CGAGCCCCTCA) (LTG core: CT, RTG core: CA) | 0.176 |
| CGGTCCCGGTGGGTTCTAACCTGTTGCCAAG [CGGTCCCCTTG_LTGcore_GG_RTGcore_CT] (site CGGTCCCCTTG) (LTG core: GG, RTG core: CT) | 0.0912 |
| ATGCTTTCTTGGGTTCTAACCTGTTGCCTAA [ATGCTTTCTAG_LTGcore_CT_RTGcore_TT] (site ATGCTTTCTAG) (LTG core: CT, RTG core: TT) | 0.322 |

----------
- protocol: recombinant UMI read abundance after kanamycin selection (control-corrected) (log10(CPM+1)); higher = more efficient recombination; extreme values may be limits of the assay; sequences stand for … in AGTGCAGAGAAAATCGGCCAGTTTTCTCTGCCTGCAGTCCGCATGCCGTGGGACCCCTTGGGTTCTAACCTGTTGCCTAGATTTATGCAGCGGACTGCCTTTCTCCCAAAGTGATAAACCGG…AGGTTGGTTTCACT; site = the 11-nt donor
So basically: recombinant UMI read abundance (log10) at 2 or higher? That is class 1. Lower than 2? That is class 0.

| sequence.entry | answer.label |
| --- | --- |
| TTCCTTTCATGGACCGGTTTTCCCGGTAATCCGTATTTGAT (site TTCCTTTCTAT) | class 0 |
| TAGCAAGCATGGACCGGTTTTCCCGGTAATCCGTATTTGAA (site TAGCTAGCTTT) | class 0 |
| GCTACCGCATGGACCGGTTTTCCCGGTAATCCGTATTTGCC (site GCTACCGCTGG) | class 0 |
| GGATTGACATGGACCGGTTTTCCCGGTAATCCGTATTTGCC (site GGATGGACTGG) | class 0 |
| GGCCAGTCATGGACCGGTTTTCCCGGTAATCCGTATTTGCA (site GGCCAGTCTTG) | class 1 |
| GTACGAGCATGGACCGGTTTTCCCGGTAATCCGTATTTGTG (site GTACGAGCTCA) | class 0 |
| GGAAAGGCATGGACCGGTTTTCCCGGTAATCCGTATTTGCT (site GGAAAGGCTAG) | class 1 |
| CCTGGTCCATGGACCGGTTTTCCCGGTAATCCGTATTTGCA (site CCAGGTCCTTG) | class 0 |
| CCCACGCCATGGACCGGTTTTCCCGGTAATCCGTATTTGTA (site ACCACGCCTTA) | class 0 |

----------
- protocol: recombinant UMI read abundance after kanamycin selection (control-corrected) (log10(CPM+1)); higher = more efficient recombination; extreme values may be limits of the assay; sequences stand for … in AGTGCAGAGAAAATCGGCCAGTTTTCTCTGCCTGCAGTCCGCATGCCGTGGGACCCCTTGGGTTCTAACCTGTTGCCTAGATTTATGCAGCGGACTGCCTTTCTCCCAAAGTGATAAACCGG…AGGTTGGTTTCACT; site = the 11-nt donor

| sequence.entry | recombinant UMI read abundance (log10) |
| --- | --- |
| AGCACGACATGGACCGGTTTTCCCGGTAATCCGTATTTGTC (site AGCACGACTGA) | 1.47 |
| CAGTCGACATGGACCGGTTTTCCCGGTAATCCGTATTTGTG (site CAGTCGACTCG) | 0.00379 |
| CTTCTCTCATGGACCGGTTTTCCCGGTAATCCGTATTTGTC (site CTTCTCTCTGA) | 2.45 |
| GGTACTTCATGGACCGGTTTTCCCGGTAATCCGTATTTGTT (site GGTACCTCTAA) | 0.0128 |
| CCCACCGCATGGACCGGTTTTCCCGGTAATCCGTATTTGCG (site CCCACCGCTCG) | 0.00466 |
| CAATACACATGGACCGGTTTTCCCGGTAATCCGTATTTGCA (site CAATACACTTG) | 2.2 |
| GGAGTGGCATGGACCGGTTTTCCCGGTAATCCGTATTTGGC (site GGAGTGGCTAC) | 0.502 |
| CGGGACCCATGGACCGGTTTTCCCGGTAATCCGTATTTGAT (site CGGGACCCTAT) | 0.879 |
| GGGTAGACATGGACCGGTTTTCCCGGTAATCCGTATTTGCC (site GGTTAGACTGG) | 0.949 |

----------
- protocol: recombinant barcode read abundance after kanamycin selection (control-corrected) (log10(CPM+1)); higher = more efficient recombination; sequences stand for … in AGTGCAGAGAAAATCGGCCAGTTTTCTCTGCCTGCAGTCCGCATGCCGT…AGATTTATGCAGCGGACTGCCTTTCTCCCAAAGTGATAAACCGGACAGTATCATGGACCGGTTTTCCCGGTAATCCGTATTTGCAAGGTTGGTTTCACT; site = the 11-nt target
measured.property: recombinant barcode read abundance (log10)

| sequence.entry | number |
| --- | --- |
| CTAGGAACTTGGGTTCTAACCTGTTGCTA (site AGGTTCCCTCC) | 0.454 |
| CTCCATCCTTGGGTTCTAACCTGTTGCCT (site CTCCATACTAG) | 0 |
| CTGCACCCTTGGGTTCTAACCTGTTGCAG (site GCGCACCCTCT) | 0.0743 |
| CCAGTAGCTTGGGTTCTAACCTGTTGCGG (site CCAGAAGCTAC) | 0.0355 |
| TGAGGGCCTTGGGTTCTAACCTGTTGCCT (site TGAGGGCCTAG) | 1.26 |
| TAGGCGACTTGGGTTCTAACCTGTTGCTT (site TAGTCGACTAA) | 0 |
| GATGGCCCTTGGGTTCTAACCTGTTGCTT (site GATGGCCCTAA) | 0.528 |
| CTGTCGCCTTGGGTTCTAACCTGTTGCCT (site CTATCGCCTAG) | 0.699 |
| TGGGACTCTTGGGTTCTAACCTGTTGCCT (site TGCGACTCTAG) | 0.00712 |
| TAGTCCTCTTGGGTTCTAACCTGTTGCTA (site TAGTCCTCTGA) | 0.0492 |

Each recorded value in this set is attributed to the supplement of paper PMC11208160.
